- subjectOfTest: recombinant human CD3ε/δ heterodimer (human) (UniProt P07766)
- Sequence (P07766 23-126, stated change not applied, chain 1 of 2): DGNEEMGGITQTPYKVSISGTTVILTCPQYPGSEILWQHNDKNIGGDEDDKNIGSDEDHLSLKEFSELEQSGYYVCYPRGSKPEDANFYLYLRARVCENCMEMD
- Sequence (P04234 22-105, stated change not applied, chain 2 of 2, further chain): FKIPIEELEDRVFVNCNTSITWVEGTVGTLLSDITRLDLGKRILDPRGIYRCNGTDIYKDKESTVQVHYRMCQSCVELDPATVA
- experimentSummary: ELISA, coated CD3ε/δ
Listing: Absorbance (450 nm) of selected binders
Reply: number alone, nothing else.

binder	recordedMetric	result
G04 (antibody, human IgG1, lambda, L234A L235A, V domains shown) VH: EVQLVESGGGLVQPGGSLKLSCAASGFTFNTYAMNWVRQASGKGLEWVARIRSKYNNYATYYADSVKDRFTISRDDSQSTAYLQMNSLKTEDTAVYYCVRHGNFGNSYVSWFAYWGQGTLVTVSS VL: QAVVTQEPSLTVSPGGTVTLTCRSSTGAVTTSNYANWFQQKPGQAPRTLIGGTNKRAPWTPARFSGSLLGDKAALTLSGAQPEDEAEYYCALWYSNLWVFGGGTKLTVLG	Absorbance (450 nm)	0.129

Problem: Fill in the blank: the reported Absorbance (450 nm) of G05 (antibody, human IgG1, lambda, L234A L235A, V domains shown) VH: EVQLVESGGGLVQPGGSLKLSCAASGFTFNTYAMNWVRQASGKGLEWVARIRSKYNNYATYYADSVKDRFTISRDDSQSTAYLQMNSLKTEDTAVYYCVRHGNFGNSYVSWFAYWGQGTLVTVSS VL: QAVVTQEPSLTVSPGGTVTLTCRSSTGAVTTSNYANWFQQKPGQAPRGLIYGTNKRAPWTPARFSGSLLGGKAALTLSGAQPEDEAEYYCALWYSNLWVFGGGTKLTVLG is ____.
Result: 0.109
